meta.source: patent EP1911451A1

pIC50: recorded values
target: CK2α (Homo sapiens); assay: in vitro CK2 kinase assay (inhibition of catalytic activity); format: biochemical; conditions: inhibition of CK2 catalytic activity, dose-dependent (Figure 2); read-out: half-maximal effective concentration
Sequence (P68400 whole entry): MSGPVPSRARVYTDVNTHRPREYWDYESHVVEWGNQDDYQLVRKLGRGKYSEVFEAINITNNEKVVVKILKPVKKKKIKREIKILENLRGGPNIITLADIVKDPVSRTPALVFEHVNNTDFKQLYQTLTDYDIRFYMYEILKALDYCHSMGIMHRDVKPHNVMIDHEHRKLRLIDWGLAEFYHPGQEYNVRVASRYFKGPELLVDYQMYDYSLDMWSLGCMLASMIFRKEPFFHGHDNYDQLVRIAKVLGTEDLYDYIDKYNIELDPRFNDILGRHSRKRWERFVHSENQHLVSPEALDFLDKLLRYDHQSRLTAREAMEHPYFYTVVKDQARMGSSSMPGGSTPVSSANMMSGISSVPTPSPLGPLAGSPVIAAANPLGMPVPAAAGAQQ
pIC50: −log10 of the molar value.
outcome.measure: pIC50

smiles.str	numeric.value
O=S(=O)(O)c1cc(/N=N/c2cc(S(=O)(=O)O)c3cccnc3c2O)ccc1/C=C/c1ccc(/N=N/c2cc(S(=O)(=O)O)c3cccnc3c2O)cc1S(=O)(=O)O	6.89
O=S(=O)(O)c1cc(/N=N/c2cc(S(=O)(=O)O)c3ccccc3c2O)ccc1/C=C/c1ccc(/N=N/c2cc(S(=O)(=O)O)c3ccccc3c2O)cc1S(=O)(=O)O	6.52
